# MEASUREMENT_PROTOCOL: in vivo
# DETAILS: bovine, Blood plasma HMB concentration
# Method: The kinetics of availability of methionine and HMB in the bloodstream were determined for the isopropyl ester of the hydroxy analogue of methionine and compared with the hydroxy analogue of methionine (a compound not according to the present invention). The procedure of Example 2 was repeated wherein samples of the isopropyl ester of the hydroxy analogue (69 g) and the hydroxy analogue (Alimet™-57 g) were given to four cows.
OBSERVATION_TYPE: concentration at 10 min (ng/g)
Unit ng/g implied. Number only.

Fill in: concentration at 10 min of CSCCC(O)C(=O)O (stereo not shown) [HMB, 2-hydroxy-4-(methylthio) butanoic acid] is ___
0

Sourced from patent US6872749B2
